# target-entity: full-length USP7 (Homo sapiens (Human))
# experimental-details: Enzymatic assay to determine IC50 of USP7 inhibitors (Ubiquitin-Rhodamine 110 cleavage)
# Assay type: biochemical
# condition: read-out: percent value of inhibition of USP7 activity

compound: Cc1ccnc(-c2ccnc3cc(CN4C(=O)C5C(C4=O)C5(C)C)sc23)c1C(O)[C@@H]1CNCCO1 (stereo partly drawn) [Example 101, 2,2,2-trifluoroacetate]
inhibition at 1 µM: < 20%
--
compound: Cc1cc(C)c(NC(=O)C2CCNCC2)c(-c2ccnc3cc(CN4C(=O)C5C(C4=O)C5(C)C)sc23)n1 (stereo not drawn) [Example 134, 2,2,2-trifluoroacetate]
inhibition at 1 µM: < 20%
--
compound: Cc1ccnc(CC2CNCCO2)c1-c1ccnc2cc(CN3C(=O)C4C(C3=O)C4(C)C)sc12 (stereo not drawn) [Example 93, 2,2,2-trifluoroacetate]
inhibition at 1 µM: < 20%

====

pIC50: −log10 of the molar value. Structures can show the parent of a compound that is named as a salt.
The next entries give measured pIC50 for full-length USP7 (Homo sapiens (Human), UniProt Q93009).
readout-name: pIC50

compound: Cc1cc(Cl)nc(-c2ccnc3cc(CN4C(=O)C5C(C4=O)C5(C)C)sc23)c1NC1CCNC1 (stereo not drawn)
target-entity: full-length USP7 (Homo sapiens (Human), UniProt Q93009)
Sequence (Q93009 whole entry): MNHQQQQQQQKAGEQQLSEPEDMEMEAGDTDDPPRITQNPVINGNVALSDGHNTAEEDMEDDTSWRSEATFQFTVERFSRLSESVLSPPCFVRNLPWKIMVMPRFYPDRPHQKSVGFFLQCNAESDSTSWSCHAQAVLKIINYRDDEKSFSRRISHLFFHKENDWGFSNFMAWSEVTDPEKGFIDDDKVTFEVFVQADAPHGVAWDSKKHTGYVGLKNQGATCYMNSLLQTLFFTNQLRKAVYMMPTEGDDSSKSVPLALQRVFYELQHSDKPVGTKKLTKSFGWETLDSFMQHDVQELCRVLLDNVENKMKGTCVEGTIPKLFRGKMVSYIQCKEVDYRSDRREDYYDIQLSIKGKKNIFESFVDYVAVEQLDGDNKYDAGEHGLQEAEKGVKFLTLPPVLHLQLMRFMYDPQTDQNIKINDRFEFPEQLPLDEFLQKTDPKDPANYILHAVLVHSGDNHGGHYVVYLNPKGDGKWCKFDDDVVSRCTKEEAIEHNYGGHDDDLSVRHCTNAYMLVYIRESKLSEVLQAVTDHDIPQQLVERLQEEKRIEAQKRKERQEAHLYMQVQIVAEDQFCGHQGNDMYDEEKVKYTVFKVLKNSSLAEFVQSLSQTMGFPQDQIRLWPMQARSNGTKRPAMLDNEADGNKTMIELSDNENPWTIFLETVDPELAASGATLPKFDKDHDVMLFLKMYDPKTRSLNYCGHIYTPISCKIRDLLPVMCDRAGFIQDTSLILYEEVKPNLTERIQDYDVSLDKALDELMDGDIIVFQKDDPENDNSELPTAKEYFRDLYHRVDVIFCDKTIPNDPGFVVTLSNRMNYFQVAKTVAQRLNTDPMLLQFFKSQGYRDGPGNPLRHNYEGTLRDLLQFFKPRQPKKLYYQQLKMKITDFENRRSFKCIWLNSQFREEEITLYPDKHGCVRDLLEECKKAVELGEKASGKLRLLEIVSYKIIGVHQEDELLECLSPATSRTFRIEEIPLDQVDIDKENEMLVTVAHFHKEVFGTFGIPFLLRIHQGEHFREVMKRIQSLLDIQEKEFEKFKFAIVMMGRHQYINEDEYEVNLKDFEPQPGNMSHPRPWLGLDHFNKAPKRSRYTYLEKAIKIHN
endpoint-value: > 6.30
--
compound: Cc1cc(C(F)(F)F)nc(-c2ccnc3cc(CN4C(=O)C5C(C4=O)C5(C)C)sc23)c1C(=O)N1[C@@H](C)CNC[C@@H]1C (stereo partly drawn) [Example 141, 2,2,2-trifluoroacetate]
target-entity: full-length USP7 (Homo sapiens (Human), UniProt Q93009)
endpoint-value: > 6.30
--
compound: Cc1cc(Cl)cc(-c2ccnc3cc(CN4C(=O)C5C(C4=O)C5(C)C)sc23)c1NC(=O)[C@H]1CCNC1 (stereo partly drawn) [Example 34, 2,2,2-trifluoroacetate]
target-entity: full-length USP7 (Homo sapiens (Human), UniProt Q93009)
endpoint-value: > 6.30
--
compound: Cc1cc(C(F)(F)F)nc(-c2ccnc3cc(CN4C(=O)C5C(C4=O)C5(C)C)sc23)c1NC1CCNC1 (stereo not drawn) [Example 18, 2,2,2-trifluoroacetate]
target-entity: full-length USP7 (Homo sapiens (Human), UniProt Q93009)
endpoint-value: > 6.30
--
compound: Cc1cc(C(F)(F)F)nc(-c2ccnc3cc(CN4C(=O)C5C(C4=O)C5(C)C)sc23)c1C(=O)N1CC[C@@H]2CNC[C@@H]21 (stereo partly drawn) [Example 116, dihydrochloride]
target-entity: full-length USP7 (Homo sapiens (Human), UniProt Q93009)
endpoint-value: > 6.30
--
compound: Cc1cc(C#N)nc(-c2ccnc3cc(CN4C(=O)C5C(C4=O)C5(C)C)sc23)c1C(=O)N1CCNC(C)(C)C1 (stereo not drawn) [Example 53, hydrochloride]
target-entity: full-length USP7 (Homo sapiens (Human), UniProt Q93009)
endpoint-value: 5.00 to 6.00

====

Quick list: inhibition at 1 µM per entry.
# target-entity: full-length USP7 (Homo sapiens (Human))
# experimental-details: Enzymatic assay to determine IC50 of USP7 inhibitors (Ubiquitin-Rhodamine 110 cleavage)
# Type: biochemical
# condition: at 1 μM of the test compound; given where IC50 not determined yet; read-out: percent value of inhibition of USP7 activity
Where a name gives a salt, the structure may show the parent alone.

compound: Cc1ccnc(-c2ccnc3cc(CN4C(=O)C5C(C4=O)C5(C)C)sc23)c1C(=O)N1CCNCC1 (stereo not drawn) [Example 45, hydrochloride]
inhibition at 1 µM: < 20%

compound: Cc1cc(C(F)(F)F)nc(-c2ccnc3cc(CN4C(=O)C5C(C4=O)C5(C)C)sc23)c1Cn1cncn1 (stereo not drawn) [Example 36, hydrochloride]
inhibition at 1 µM: < 20%

compound: CC1(C)C2C(=O)N(Cc3cc4nccc(-c5cc(Cl)cnc5O[C@H]5CCNC5)c4s3)C(=O)C21 (stereo partly drawn) [Example 164, dihydrochloride]
inhibition at 1 µM: < 20%

compound: Cc1cc(C(F)(F)F)nc(-c2ccnc3cc(CN4C(=O)C5C(C4=O)C5(C)C)sc23)c1CN1CCNCC1=O (stereo not drawn) [Example 40, dihydrochloride]
inhibition at 1 µM: 20 to 49%

compound: CC1(C)C2C(=O)N(Cc3cc4nccc(-c5cc(Cl)cnc5O[C@H]5CCCNC5)c4s3)C(=O)C21 (stereo partly drawn) [Example 161, dihydrochloride]
inhibition at 1 µM: 50 to 70%

compound: Cc1nc(C#N)cc(-c2ccnc3cc(CN4C(=O)C5C(C4=O)C5(C)C)sc23)c1C(=O)N1CCC(F)(F)CC1 (stereo not drawn) [Example 13, 2,2,2-trifluoroacetate]
inhibition at 1 µM: 20 to 49%
